Test system: HOP-92 NSCLC
Test: NCI tumour cell line growth inhibition, 48 h
The entries below come with measured TGI values attached.

| Compound | Tested On | Recorded Value |
| --- | --- | --- |
| Cc1ccc(S(=O)(=O)NC(=O)NC(CO)C(=O)O)cc1 (configuration not stated) | HOP-92 NSCLC | > 100 µM |
| O=S(=O)(c1cc(Cl)ccc1Cl)N1CCN(c2ccc(Cl)c(Cl)c2)CC1 | HOP-92 NSCLC | 35.4 µM |
| CC(=O)Nc1ccc(Nc2cc(=O)n(C)c(=O)[nH]2)cc1 | HOP-92 NSCLC | > 100 µM |
| COc1cc[nH]c1/C=C1\C(=O)Nc2ccc(F)c(C#C[C@@H](O)[C@@H](N)[C@@H](C)O)c21 | HOP-92 NSCLC | 1.96 µM |
| Nc1ccn(C=C=CCO)c(=O)n1 | HOP-92 NSCLC | > 1000 µM |
| CN1CCN(c2nc3ccccc3nc2C(=O)c2ccc(Cl)cc2)CC1 | HOP-92 NSCLC | > 100 µM |
| COc1cc2c3c(n(C)c(=O)c2cc1OC)-c1cc2c(cc1/C3=C\CCCCN)OCO2 | HOP-92 NSCLC | > 100 µM |
| S=c1[nH]nc(COc2ccc(Cl)cc2)o1 | HOP-92 NSCLC | > 100 µM |
| COc1ccc(N(C)c2nc(C)nc3ccccc23)cc1 | HOP-92 NSCLC | 4.94 µM |
| CCOC(=O)/N=c1\ss/c(=N\C(=S)N(C)C)n1-c1ccccc1 | HOP-92 NSCLC | 94.2 µM |

// query TGI value for entry "O=C1c2ccccc2-c2c1c1ccccc1c(=O)n2CCO"
> 71.6 µM

# input compound: "C/C(=N\NC(=S)Nc1ccc(C(=O)O)cc1)c1ccccn1" ; wanted: its TGI
> 100 µM

Need TGI, item "Cc1cc(C)c(S(=O)(=O)N[C@@H](/C=C(\Br)CO)C(C)C)c(C)c1"
75.5 µM

Item under review: CCCCCCCCCCCCCCCC(=O)ON1C(=S)NC(C)(c2ccccc2)C1=S (configuration not stated) . Reported TGI?
> 100 µM

Return reported TGI; argument: "O=C(CCCN1CCC2(CC1)C(=O)NC(=O)N2c1ccccc1)c1ccc(F)cc1"
> 100 µM

* * *

Test system: DMS 273 small cell lung
Assay: NCI tumour cell line growth inhibition, 48 h
Each entry below lists one item and its recorded TGI value.

Example cases with answers are listed next.
| Molecule | Tested On | TGI |
| --- | --- | --- |
| CCCCCCC(=O)C/C(CCC(=O)N(Cc1ccccc1)Cc1ccccc1)=N\Nc1ccc([N+](=O)[O-])cc1[N+](=O)[O-] | DMS 273 small cell lung | > 100 µM |
| CCC1(OC(=O)CN2CCN(CCO)CC2)C(=O)OCc2c1cc1n(c2=O)Cc2cc3ccccc3nc2-1 (stereo unspecified) | DMS 273 small cell lung | 0.367 µM |
| Cn1nc(-c2ccccc2NC(=O)C(F)(F)F)c(=O)n(C)c1=S | DMS 273 small cell lung | > 100 µM |
| COc1ccc(-c2oc3cc(O)c(OC)c(O)c3c(=O)c2OC2OC(CO)C(O)C(O)C2O)cc1 (stereo unspecified) | DMS 273 small cell lung | > 100 µM |
| O/N=C1/C(=C/c2ccc(F)cc2)CCCC1C(NO)c1ccc(F)cc1 (stereo unspecified) | DMS 273 small cell lung | > 100 µM |

Please report the recorded TGI for "COc1c(OC(C)=O)ccc(/C=C2\N=C(C)OC2=O)c1[N+](=O)[O-]" .
> 100 µM

Any idea what its TGI is? The molecule is "CCN(CC)CCNC(=O)c1ccc([N+](=O)[O-])cc1OC"
> 100 µM

What value of TGI has been reported for the following molecule? "Cc1c(NC(=O)C(=O)N=NC(=O)c2ccncc2)c(O)c2ccccc2c1O"
23.2 µM

Name the reported TGI value associated with the molecule "O=C(O)CN(c1ccc(Cl)cc1)S(=O)(=O)c1ccccc1"
> 100 µM

What value of measured TGI is listed for CC(Cl)(/C=C/Cl)C(Cl)/C=C/C(Cl)(CCl)CBr (stereo unspecified) ?
17.1 µM

Entry under review: "NC(N)=NS(=O)(=O)c1ccc(NC(=O)c2cccc3c(Nc4ccc(S(=O)(=O)N=C(N)N)cc4)c4ccc(Cl)cc4nc23)cc1" . Reported TGI?
> 100 µM

Would you mind telling me what TGI value was observed for "CC1=C(C(=O)Nc2ccccc2)C(c2ccc3c(c2)OCO3)C(C(=O)Nc2ccccc2)=C(C)N1" ?
86.5 µM
